procedure_details: NCI Yeast Anticancer Drug Screen. Data for the rad50 strain (AID 155);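 also: 0% = growth of vehicle-only cultures of the same strain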
conditions_used: S. cerevisiae rad50 strain growth inhibition; at 50.0 µM
About 79,000 compounds went through this panel and 15% of them were active in at least one assay; those are over-represented in the sample as a whole. Activity calls are given as the source filed them. Rule as the data show it: active = growth inhibition above about 70%; inactive = the rest.
Outcome codes: active, inactive

compound: O=C(OC1C=C=CS(=O)(=O)CC#C/C=C\1)c1cnc2ccccc2n1 (stereo unspecified)
assigned_label: active

compound: OC(Cn1cncn1)(Cn1cncn1)c1ccc(Cl)cc1Cl
assigned_label: inactive

compound: CC(C)NC(=O)OCCS(=O)c1c(Cl)c(Cl)nn1C (stereo unspecified)
assigned_label: active

compound: C=C1CCC[C@@]2(C)CC[C@@H](/C(C)=C\C=C\C(C)(C)O)C[C@H]12
assigned_label: active

compound: C=C(CN(C)C)C(=O)c1ccccc1
assigned_label: inactive

compound: ClC1(Cl)C(Cl)(Cl)C12c1ccccc1-c1ccccc12
assigned_label: active

compound: O=C(CSc1nnc(-c2ccc(N=Cc3ccc(Cl)cc3)cc2)o1)Nc1ccc(Cl)cc1Cl
assigned_label: active

compound: O=[N+]([O-])c1ccc(NS(=O)(=O)c2ccc(Cl)c(Cl)c2Cl)c([N+](=O)[O-])c1
assigned_label: active

compound: CCCCOc1ccc(CC(O)CN2CCCCC2C)cc1 (stereo unspecified)
assigned_label: active

compound: C=CCc1cc([N+](=O)[O-])ccc1O
assigned_label: active

compound: CC(CO)CCC(=O)C(C)C1C(=O)CC2CC3CC(O)CCC3(C)CC21C (stereo unspecified)
assigned_label: active

---

procedure_details: NCI Yeast Anticancer Drug Screen. Data for the mlh1 rad18 strain (AID 175)
conditions_used: S. cerevisiae mlh1 rad18 strain growth inhibition; at 5.0 µM (retest, dose inferred, filed as 0.5); stronger effect = higher value
This is part of a sample that, as a whole, favours compounds with a hit. Of some 79,000 tested, about 15% had one in any assay.
Below, each entry is listed alongside its reported growth inhibition.

compound: CC(C)N(C(=O)C12C3C4C1C1C2C3C41I)C(C)C (stereo not given)
growth inhibition [%]: -34

compound: CN(C)C=NCCNc1ccc([N+](=O)[O-])cn1
growth inhibition [%]: -139

compound: Cc1cc(C)c(Cc2ccccc2O)cc1Cc1ccccc1O
growth inhibition [%]: 34

compound: Cc1cc2nc(-c3ccccc3[N+](=O)[O-])[nH]c2cc1C
growth inhibition [%]: 2

compound: CCC(c1ccc(O)cc1)C(CC)c1ccc(O)c(CN(C)C)c1 (stereo not given)
growth inhibition [%]: 2

compound: CC(C)CCCC(C)C1CCC2C3CC=C4CC(OC(=O)Nc5ccc(S(=O)(=O)c6ccc(F)cc6)cc5)CCC4(C)C3CCC12C (stereo not given)
growth inhibition [%]: 4

compound: Cc1cc(C2CCCCC2)n(O)c(=O)c1
growth inhibition [%]: 98

compound: CCCCCCCCCCCCCC/C(=C/OCC[N+](C)(C)C)OC(C)=O (tested in a mixture with another compound)
growth inhibition [%]: 98

compound: O=C(NCc1ccc(F)cc1)c1ccc(C(=O)NCc2ccc(F)cc2)cc1
growth inhibition [%]: -8

compound: COc1cc(CC#N)c(NC(C)=O)cc1OC
growth inhibition [%]: -1

---

procedure_details: NCI Yeast Anticancer Drug Screen. Data for the cln2 rad14 strain (AID 165);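 also: 0% = growth equal to vehicle treated cultures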
conditions_used: S. cerevisiae cln2 rad14 strain, at 5.0 µM (retest, dose inferred, filed as 0.5), stronger effect = higher value
The panel holds about 79,000 compounds, 15% with a hit somewhere; the sample as a whole holds those more often.
quantity_name: growth inhibition (%)

compound: COc1ccc(CNC(C#N)c2ccccc2)cc1OC (centres undefined)
val: 5
--
compound: O=C1/C(=C/c2cccc([N+](=O)[O-])c2)Sc2scc(-c3ccc([N+](=O)[O-])cc3)[n+]21
val: -15
--
compound: O=c1[nH]c2ccc([N+](=O)[O-])c(Cl)c2c2ccccc12
val: 9
--
compound: CC(C)CCOC(=O)Nc1cccc(Cl)c1
val: 1
--
compound: Cc1ccc([N+](=O)[O-])c2c(NCCCN(C)C)c3ccccc3nc12
val: 95
--
compound: O=[N+]([O-])c1cc(Br)cc(Br)c1O
val: 20
--
compound: c1ccc(C2=NCCC(c3ccccc3)S2)cc1 (centres undefined)
val: -19
--
compound: CCC(C)(O)Cc1cnccn1 (centres undefined)
val: -1
--
compound: O=c1oc(-c2ccc(Cl)cc2[N+](=O)[O-])nc2ccccc12
val: 31
--
compound: O=S(=O)(c1cc(Br)ccc1O)c1cc(Br)ccc1O
val: 99
--
compound: O=C(O)c1ccccc1-c1ccccc1C(=O)Nc1ccc2c(c1)Cc1cc(F)ccc1-2
val: -19
--
compound: CN(C)C=Nc1c2ccccc2nc2ccccc12
val: 37
--
compound: Nc1c(/C=C/c2cc3ccc(C4=NCCN4)cc3[nH]2)[nH]c2cc(C3=NCCN3)ccc12
val: 47
--
compound: CCOC(=O)C1CCN(Cc2ccccc2)CC1=O (centres undefined)
val: 49
--
compound: O=C(c1ccccc1)C1(C(=O)c2ccccc2)/C(=N\O)C2CCC1C2 (centres undefined)
val: -2
--
compound: O=C1NC(=O)c2cccc3cccc1c23
val: -5
--
compound: C1=C(c2ccccc2)SC=C(c2ccccc2)S1
val: -9
--
compound: CC(C)c1cc2c(cc1O)C[C@@]1(O)CCCC(C)(C)C1CC2 (some centres undefined)
val: -16
--
compound: CCCCCCCCCCCCCCCC[NH][Ge]([NH]CCCCCCCCCCCCCCCC)([NH]CCCCCCCCCCCCCCCC)[NH]CCCCCCCCCCCCCCCC
val: 99
--
compound: CCN(CC)C(=O)C(C)OC(C)=O (centres undefined)
val: -2
--
compound: O=C(Cc1nc2ccccc2s1)Nc1cccc(C(F)(F)F)c1
val: 32
--
compound: CCOC1(OCC)C(C)C(c2ccccc2)C(c2ccccc2)C1C (centres undefined)
val: -4
--
compound: COc1ccc(/C=C(/NC(=O)c2ccccc2)C(=O)Nc2ccccc2)cc1OC
val: -23
--
compound: O=C(O)CCCNc1ncc2c(n1)-c1ccccc1OC2
val: 20
